Test system: P388 leukemia ip, CD2F1 mice, survival T/C
Test: NCI In Vivo Anticancer Drug Screen. Data for tumor model P388 Leukemia (intraperitoneal) in CD2F1 (CDF1) mice
Measurement Context: endpoint: median survival time; dose: 50.0 mg/kg/injection; schedule: Q01DX005 (ip); vehicle: Klucel (hydroxypropylcellulose) (HPC); higher = longer survival
Toxic doses and inconclusive results are not listed.
Property: T/C; scope: individual compounds

>>> df
                              compound   endpoint_result
0          Cc1[nH]nc2oc(=O)c3ccccc3c12  105 % of control
1            O=Nc1sc(=S)n(N2CCCCC2)c1O   99 % of control
2    CC(C)(O)c1cc(=O)n(-c2ccccc2)[nH]1  102 % of control
3  COc1ccc(NC(=O)Nc2nc3c(C)cccc3s2)cc1  101 % of control
4           Nc1nc(C2CCCCC2)cc(=O)[nH]1   87 % of control
5       CC(=O)NC(=O)CCCCCCC(=O)NC(C)=O   88 % of control

# input Could you please provide reported T/C for COc1nc(N)nc2c1CSc1ccccc1-2 ? Thanks!
# output 97 % of control

# input Could you please provide reported T/C for O=C(Nc1cccc(NC(=O)c2nn[nH]n2)n1)c1nn[nH]n1 ? Thanks!
# output 105 % of control

----------
Tested on: P388 leukemia ip, CD2F1 mice, survival T/C
Test: NCI In Vivo Anticancer Drug Screen. Data for tumor model P388 Leukemia (intraperitoneal) in CD2F1 (CDF1) mice
Measurement Context: endpoint: median survival time; dose: 240.0 mg/kg/injection; schedule: Q01DX005 (ip); vehicle: Klucel (hydroxypropylcellulose) (HPC); higher = longer survival
Toxic doses and inconclusive results are not listed.
Property: T/C; scope: individual compounds

                                   compound  endpoint_result
0  O=c1c2ccc(S(=O)(=O)c3ccc4c(=O)n5c6ccccc6nc5c5cccc3c45)c3cccc(c32)c2nc3ccccc3n12  99 % of control

# input Could you please provide reported T/C for CC1(C)OC(=O)N=C1c1cccc(Cl)c1 ? Thanks!
# output 117 % of control

# input Could you please provide reported T/C for CCC(=O)c1ccc(NC(=O)Nc2ncccn2)cc1 ? Thanks!
# output 95 % of control

----------
System: P388 leukemia ip, CD2F1 mice, survival T/C
Test: NCI In Vivo Anticancer Drug Screen. Data for tumor model P388 Leukemia (intraperitoneal) in CD2F1 (CDF1) mice
Measurement Context: endpoint: median survival time; dose: 6.25 mg/kg/injection; schedule: Q01DX009 (ip); vehicle: saline with Tween-80; higher = longer survival
Description: The antitumor activity of compounds was measured in mice bearing transplantable tumors. Survival or tumor size were measured and the results are expressed as the measurement made in the treated group (T) divided by the measurement made in the vehicle treated control group (C). The tumor model used in this assay is P388 Leukemia (intraperitoneal) in CD2F1 (CDF1) mice
Inconclusive results and toxic doses are left out.
Property: T/C; scope: individual molecules

Answered examples (4):
In [3]: df
Out[3]:
                                   molecule  endpoint_result
0            CCCCCCCCCCCCCCCCNCCCS(=O)(=O)O  96 % of control
1               CCCNc1ncc(C(=O)O)c(=O)[nH]1  95 % of control
2  CCC12NC(=O)NC1(C)NC(=O)N2 (stereo not given)  91 % of control
3   CCN(CC)CCN1C(=O)c2cccc3cc(N)cc(c23)C1=O  98 % of control

We next turn to a different molecule, shown below.
# input Could you please provide reported T/C for O=C(c1cc2c(cc1[N+](=O)[O-])OCO2)N1CCc2ccccc21 ? Thanks!
# output 99 % of control

----------
Property: T/C; scope: individual compounds
Test system: P388 leukemia ip, CD2F1 mice, survival T/C
Test: NCI In Vivo Anticancer Drug Screen. Data for tumor model P388 Leukemia (intraperitoneal) in CD2F1 (CDF1) mice
Measurement Context: endpoint: median survival time; dose: 50.0 mg/kg/injection; schedule: Q01DX005 (ip); vehicle: saline with Tween-80; higher = longer survival
Toxic doses and inconclusive results are not listed.

Answered examples (5):
In [3]: df
Out[3]:
                                   compound   endpoint_result
0     COCCn1c(=N)c(C(=O)OC)nc2c3ccccc3ccc21  104 % of control
1  SC1CCCN(Cc2ccccc2)C1 (configuration not stated)  117 % of control
2  CCOc1ccc(/C=N/NC(=O)c2c(-c3ccccc3)noc2C)cc1   86 % of control
3  C=CCN1C(=O)CCN(S(=O)(=O)c2ccc(-n3nc(C(=O)O)cc3C)cc2)C1=S  103 % of control
4  C[C@]12CC[C@@H]3c4ccc(O)c(N)c4CC[C@H]3[C@@H]1CC[C@@H]2O   94 % of control

# input Could you please provide reported T/C for NCCCCC(C(=O)O)N(C(=O)OCc1ccccc1)C(=O)OCc1ccccc1 (configuration not stated) ? Thanks!
# output 106 % of control

# input Could you please provide reported T/C for OCCNCCNc1ccnc2c1ccc1ccccc12 ? Thanks!
# output 105 % of control

# input Could you please provide reported T/C for Nc1[nH]c(=O)nc2sc3ccccc3c12 ? Thanks!
# output 102 % of control

# input Could you please provide reported T/C for CCOC(=O)C1CCCCC12Nc1cccc3cccc(c13)N2 (configuration not stated) ? Thanks!
# output 95 % of control

# input Could you please provide reported T/C for O=C1CN(c2cccc(Cl)c2)C(=O)CN1/N=C/c1ccccn1 ? Thanks!
# output 100 % of control

# input Could you please provide reported T/C for O=C1c2ccccc2C(=O)c2c1c(O)c1cccnc1c2O ? Thanks!
# output 103 % of control

# input Could you please provide reported T/C for COc1ccc(C2NCc3c(sc4c3CCCC4)-n3cccc32)cc1 (configuration not stated) ? Thanks!
# output 87 % of control

# input Could you please provide reported T/C for CC(C)CC(NC(=O)C(CCCCN)N(C(=O)OCc1ccccc1)C(=O)OCc1ccccc1)C(=O)O (configuration not stated) ? Thanks!
# output 99 % of control

----------
Test system: P388 leukemia ip, CD2F1 mice, survival T/C
Test: NCI In Vivo Anticancer Drug Screen. Data for tumor model P388 Leukemia (intraperitoneal) in CD2F1 (CDF1) mice
Measurement Context: endpoint: median survival time; dose: 100.0 mg/kg/injection; schedule: Q01DX005 (ip); vehicle: saline with Tween-80; higher = longer survival
Toxic doses and inconclusive results are not listed.
Property: T/C; scope: individual molecules

>>> df
                                   molecule                             target_entity  property_measured   endpoint_result
0                        C1CNC(C2=NCCN2)=N1  P388 leukemia ip, CD2F1 mice, survival T/C                T/C  101 % of control
1  Cc1ccc(C)c(C(O)(c2cc(C)ccc2C)C2(O)CCCCC2)c1  P388 leukemia ip, CD2F1 mice, survival T/C                T/C  103 % of control
2               Nc1[nH]c(=O)nc2sc3ccccc3c12  P388 leukemia ip, CD2F1 mice, survival T/C                T/C  105 % of control
3  COc1cccc(C(=O)N/N=C(\C#N)c2cccc(OC)c2)c1  P388 leukemia ip, CD2F1 mice, survival T/C                T/C   94 % of control
4  CCC(=O)C(=O)CC1CC(c2ccco2)=Nc2ccccc2S1 (stereo unspecified)  P388 leukemia ip, CD2F1 mice, survival T/C                T/C  113 % of control

# input Could you please provide reported T/C for FC(F)(F)COP(c1ccccc1)c1ccccc1 ? Thanks!
# output 111 % of control

----------
Property: T/C; scope: individual compounds
Test system: P388 leukemia ip, CD2F1 mice, survival T/C
Test: NCI In Vivo Anticancer Drug Screen. Data for tumor model P388 Leukemia (intraperitoneal) in CD2F1 (CDF1) mice
Measurement Context: endpoint: median survival time; dose: 100.0 mg/kg/injection; schedule: Q04DX002 (ip); vehicle: Klucel (hydroxypropylcellulose) (HPC); higher = longer survival
Inconclusive results and toxic doses are left out.

# input Could you please provide reported T/C for Cc1nc2scc(-c3ccc(Cl)cc3)n2c(=O)c1CN1CCCCC1 ? Thanks!
# output 95 % of control

# input Could you please provide reported T/C for FC(F)(F)c1nnc(-c2ccccc2)nn1 ? Thanks!
# output 100 % of control

# input Could you please provide reported T/C for COc1ccc(NS(=O)(=O)c2ccc(N=Cc3c4ccccc4nc4ccccc34)cc2)nn1 ? Thanks!
# output 96 % of control
